From: paper PMC9482650

Target: DLG4_3, P78352
Sequence (P78352 306-403): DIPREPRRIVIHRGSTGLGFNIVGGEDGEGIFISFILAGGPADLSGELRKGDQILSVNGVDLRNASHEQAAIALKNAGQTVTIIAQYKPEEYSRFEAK
Test: holdup assay
Design: key: below the threshold = too weak to quantify, mostly under pKd 3.1 to 4
Settings: plain residues with an end cap or a label only (N-terminal biotin on a linker: ttds)
observable: pKd
Simply state the number, no unit and no words.

SRSRRRETAL [HPV33-E6, P06427]: 5.32
SGGKRKETLV [NET1, Q7Z628]: 4.92
NPDALPETLV [ARHGAP6, O43182]: 3.46

Could you now consider this next binder?
Which pKd value is on record for KLVIKTETTV [RASSF6, Q6ZTQ3] ? 4.39
